Measurement Protocol: physchem
Recorded Conditions: octanol/buffer
Please note: logP exactly at 5 is Criterion not met. Only values below 5 get Criterion met.

Item O=C(OCc1ccc(N2C(=O)CNC[C@@H]2C(=O)N(Cc2cc(CNC(=O)C3CC3)ccc2Cl)C2CC2)cc1)c1ccccc1 : logP beneath 5, strictly?
Criterion met

Is 5 strictly greater than the molecule's reported logP? molecule: CNCc1ccc(Cl)c(CN(C(=O)[C@H]2CNCC(=O)N2c2ccc(OCCOc3c(Cl)cc(C)cc3Cl)cc2)C2CC2)c1
Criterion not met

Threshold test, logP < 5: COC(=O)NCc1ccc(Cl)c(CN(C(=O)[C@H]2CNCC(=O)N2c2ccc(OCCOc3c(Cl)cc(C)cc3Cl)nc2)C2CC2)c1
Criterion met

Does this molecule meet the criterion logP < 5? CCNCCc1ccc(Cl)c(CN(C(=O)[C@H]2CNCC(=O)N2c2ccc(OCCOc3c(Cl)cc(C)cc3Cl)cc2)C2CC2)c1
Criterion not met

State whether 5 exceeds logP recorded for CC(C)(C)OCC(=O)NCCc1ccc(Cl)c(CN(C(=O)[C@H]2CNCC(=O)N2c2ccc(CCCOc3cccc(Cl)c3)cc2)C2CC2)c1 .
Criterion not met

Data origin: ChEMBL document CHEMBL1944551
